# Target or system: JAK2 (Homo sapiens (Human), UniProt O60674)
# Sequence (O60674 whole entry): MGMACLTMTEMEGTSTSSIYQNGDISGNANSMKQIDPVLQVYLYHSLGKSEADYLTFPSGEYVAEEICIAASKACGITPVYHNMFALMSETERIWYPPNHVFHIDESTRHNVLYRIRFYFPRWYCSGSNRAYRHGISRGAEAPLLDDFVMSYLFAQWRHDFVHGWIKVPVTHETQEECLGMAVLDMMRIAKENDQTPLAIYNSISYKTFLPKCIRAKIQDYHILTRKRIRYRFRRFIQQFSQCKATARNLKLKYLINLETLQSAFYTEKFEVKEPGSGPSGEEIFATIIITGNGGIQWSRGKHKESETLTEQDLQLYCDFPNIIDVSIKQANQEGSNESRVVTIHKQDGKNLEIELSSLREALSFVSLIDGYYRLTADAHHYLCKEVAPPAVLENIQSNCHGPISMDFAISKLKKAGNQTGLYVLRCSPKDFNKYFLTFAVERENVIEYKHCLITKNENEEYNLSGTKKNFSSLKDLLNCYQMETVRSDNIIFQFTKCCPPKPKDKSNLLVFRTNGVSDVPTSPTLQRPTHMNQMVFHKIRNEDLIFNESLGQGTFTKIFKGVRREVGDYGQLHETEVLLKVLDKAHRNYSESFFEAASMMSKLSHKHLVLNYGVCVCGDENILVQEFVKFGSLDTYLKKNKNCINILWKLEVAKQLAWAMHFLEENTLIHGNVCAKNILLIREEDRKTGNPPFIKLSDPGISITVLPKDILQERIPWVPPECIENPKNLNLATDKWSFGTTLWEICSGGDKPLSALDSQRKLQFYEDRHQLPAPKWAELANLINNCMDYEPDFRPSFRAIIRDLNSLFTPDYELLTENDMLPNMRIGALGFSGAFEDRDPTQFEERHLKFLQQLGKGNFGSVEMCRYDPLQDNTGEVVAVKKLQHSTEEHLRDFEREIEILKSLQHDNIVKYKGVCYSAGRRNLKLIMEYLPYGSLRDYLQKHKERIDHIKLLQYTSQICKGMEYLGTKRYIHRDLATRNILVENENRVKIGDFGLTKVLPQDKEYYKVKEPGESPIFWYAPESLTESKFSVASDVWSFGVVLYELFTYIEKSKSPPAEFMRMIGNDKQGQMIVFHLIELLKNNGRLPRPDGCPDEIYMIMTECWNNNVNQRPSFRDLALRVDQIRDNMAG
# Protocol notes: JAK LanthaScreen Kinase Assay (TR-FRET), JAK2 in vitro enzyme assay
# Assay type: biochemical
# Assay conditions: 5 μM ATP
Experimental readout: pIC50
Just the number, please; pIC50 means minus log10 of the concentration in mol/L.

Cn1cnc2c(Nc3ccn(-c4ccccn4)n3)cc(O[C@H]3CC[C@@H](NC[C@@H](O)C(F)(F)F)CC3)cc21: 6.66
COc1cc(Nc2cc(O[C@H]3CC[C@@H](NC[C@@H](O)C(F)(F)F)CC3)cc3c2ncn3C)nn1C: 6.11

Enquiry: Please look up its pIC50: `Cc1cc(Nc2cc(O[C@H]3CC[C@@H](NC[C@@H](O)C(F)F)CC3)cc3c2ncn3C)nn1C`
Return: 6.12

Enquiry: pIC50 lookup needed for `COCCCn1nc(Nc2cc(O[C@H]3CC[C@@H](NC[C@@H](O)C(F)(F)F)CC3)cc3c2ncn3C)cc1C` , thanks.
Return: 5.92

Enquiry: Endpoint output: pIC50 of `Cn1cnc2c(Nc3cc[nH]n3)cc(O[C@H]3CC[C@@](C)(NC[C@@H](O)C(F)(F)F)CC3)cc21` . Value?
Return: 6.62

---

IC50 overview
# Target or system: JAK2 (Homo sapiens (Human))
# Protocol notes: Human whole blood assay: pSTAT5 (JAK2) in monocytes, GM-CSF stimulated
# Type: cell-based
# Assay conditions: pSTAT5 in CD4Low CD33Hi monocytes
Write the number in µM without appending the unit.

COc1cc(Nc2cc(O[C@H]3CC[C@@H](NC[C@@H](O)C(F)(F)F)CC3)cc3c2ncn3C)nn1C: 20.3
Cn1cnc2c(Nc3cc[nH]n3)cc(O[C@H]3CC[C@@](C)(NC[C@@H](O)C(F)(F)F)CC3)cc21: 9.63
Cc1cc(Nc2cc(O[C@H]3CC[C@@H](NC[C@@H](O)C(F)F)CC3)cc3c2ncn3C)nn1C: 16.9

Shifting focus to the compound that follows.
Enquiry: Fill blank: measured IC50 of the compound `Cn1cnc2c(Nc3ccn(-c4ccccn4)n3)cc(O[C@H]3CC[C@@H](NC[C@@H](O)C(F)(F)F)CC3)cc21` is ____.
Return: 6.86
